System: CP286
Assay: qHTS profiling for inhibitors of Plasmodium falciparum proliferation (AID 504749); further: nearly all actives have a fitted effect of over 60% in size
Settings: P. falciparum in erythrocytes, SYBR Green DNA, 72 h; series mostly up to 28.7 µM
Inconclusive results are not listed. Active and inactive are the calls of the source. The call rests on the fitted dose curve; in most records, active means well fitted inhibition curve with a large enough effect; inconclusive means small, poorly fitted or top-dose-only effect; inactive means flat fitted curve, though single readings scatter.
Outcome (select one): true = active, false = inactive

Worked examples follow.
INSERT INTO assay_data (compound, category) VALUES
  ('CCOc1ccc(NC(C)=O)cc1', 'false'),
  ('OCc1ccccn1', 'false'),
  ('CCCCC(CC)COC(=O)c1ccc(N(C)C)cc1 (stereo not drawn)', 'false'),
  ('Cc1c(-c2ccccc2)oc2c(C(=O)OCCN3CCCCC3)cccc2c1=O', 'false'),
  ('N#CCC(=O)NN', 'false'),
  ('NS(=O)(=O)c1ccc(Cl)c(S(N)(=O)=O)c1', 'false'),
  ('CCOc1ccccc1C(N)=O', 'false'),
  ('COc1cc(O)c(C(=O)c2ccccc2)cc1S(=O)(=O)O', 'false'),
  ('CC(C)=CCOc1ccc(/C=C/C(=O)c2ccc(OCC=C(C)C)cc2OCC(=O)O)cc1', 'false'),
  ('CCCCN=C(N)N=C(N)N', 'false');

## Input Which outcome was entered for the compound FC(F)(F)C(F)(F)C(F)(F)C(F)(F)C(F)(F)C(F)(F)C(F)(F)C(F)(F)Br in this test?
## Output false

## Input Per the assay record, what outcome was assigned to CCCCCCCCCCCCOCCOCCOCCOCCOCCOCCOCCOCCOCCO ?
## Output false

## Input Please indicate how the test categorized O[C@@H](c1cc(C(F)(F)F)nc2c(C(F)(F)F)cccc12)[C@H]1CCCCN1 .
## Output true

## Input Per the assay record, what outcome was assigned to CCCc1ncc(C[n+]2ccccc2C)c(N)n1 ?
## Output false

## Input Returns: the outcome recorded for CC(=O)Nc1ccc(CC(=O)O)cc1 in this assay.
## Output false

## Input Each compound tested received a call. Report the one for O=C(Oc1cccc2cccnc12)c1ccccc1 .
## Output false

## Input Hi team, can someone confirm the assay call for CCCCCCCCCCCCCC(=O)OC(C)C ?
## Output false

## Input Call for entry CCN(CC)CCNC(=O)COc1ccc(OC)cc1 :
## Output false

## Input I'd appreciate the recorded outcome for Cc1c[nH]c2ccccc12 from this test.
## Output false

## Input Test call for this compound, please: COc1cc(N)c(Cl)cc1C(=O)NC1CCN(Cc2ccccc2)CC1
## Output false

## Input Which outcome did this test record for the compound COc1cc(NS(=O)(=O)c2ccc(N)cc2)ncn1 ?
## Output false

## Input Could you kindly confirm the outcome this assay logged for N=C(N)N1CCc2ccccc2C1 ?
## Output false

----------
System: W2
Experiment: qHTS profiling for inhibitors of Plasmodium falciparum proliferation (AID 504749); further: nearly all actives have a fitted effect of over 60% in size; further: potency means the concentration at half of the fitted maximal effect
Conditions: P. falciparum in erythrocytes, SYBR Green DNA, 72 h; series mostly up to 28.7 µM
Inconclusive results are not listed. Calls of active or inactive are those of the source. Calls follow the shape of the dose curve; as a rule, active = well fitted inhibition curve with a large enough effect; inconclusive = small, poorly fitted or top-dose-only effect; inactive = flat fitted curve, though single readings scatter.
MEASURE: Potency

Please review the entries below; each comes with its answer.
INSERT INTO assay_data (molecule, system_under_test, measure, endpoint_result) VALUES
  ('Cc1ccc(O)c([C@H](CCN(C(C)C)C(C)C)c2ccccc2)c1', 'W2', 'Potency', '849 nM (active)'),
  ('CCCCC(CC)COC(=O)c1ccc(N(C)C)cc1 (stereo not given)', 'W2', 'Potency', 'inactive'),
  ('O=C(Nc1ccc([N+](=O)[O-])cc1)Nc1ccc([N+](=O)[O-])cc1', 'W2', 'Potency', '2390 nM (active)'),
  ('Cc1ccc(S(=O)(=O)NC(=O)NC2CCCC2)cc1', 'W2', 'Potency', 'inactive'),
  ('O=C(O)Cc1csc(-c2ccc(Cl)cc2)n1', 'W2', 'Potency', 'inactive');

Just so you know, measured Potency for Cc1cc(NS(=O)(=O)c2ccc(N)cc2)nc(C)n1 came out at inactive

// CC(=O)Nc1ncc([N+](=O)[O-])s1 : Potency value = inactive

----------
Test: qHTS of pediatric cancer cell lines to identify multiple opportunities for drug repurposing: Primary screen for A673 cells (AID 1347092); further: nearly all actives have a fitted effect of over 45% in size
Conditions: A673 Ewing sarcoma viability, CellTiter-Glo ATP luminescence, 48 h; series mostly up to 46 µM
Inconclusive results are not listed. Calls of active or inactive are those of the source. Calls come from the whole dose curve; as a rule, active = well fitted cell-killing curve with a large enough effect; inconclusive = small, poorly fitted or top-dose-only effect; inactive = no such curve, though single readings can be large or run the other way.
Pick from active, inactive when you respond.

INSERT INTO measurements (compound, category) VALUES
  ('OCCOCCN1CCN(C2=Nc3ccccc3Sc3ccccc32)CC1', 'inactive'),
  ('NC(=O)C1(N2CCCCC2)CCN(CCCC(=O)c2ccc(F)cc2)CC1', 'inactive'),
  ('Cc1cn([C@H]2C[C@H](F)[C@@H](CO)O2)c(=O)[nH]c1=O', 'inactive'),
  ('CC(=O)Nc1ccc(S(=O)(=O)Nc2ccc([N+](=O)[O-])cc2)cc1', 'inactive'),
  ('CC(C)Cc1ccc(CC(=O)O)cc1', 'inactive'),
  ('O=C(O)C1(C(=O)O)CCC1.[NH2-].[NH2-].[Pt+2]', 'inactive'),
  ('CO[C@H]1C=CO[C@@]2(C)Oc3c(C)c(O)c4c(O)c(c(/C=N/N5CCN(C)CC5)c(O)c4c3C2=O)NC(=O)/C(C)=C\C=C[C@H](C)[C@H](O)[C@@H](C)[C@@H](O)[C@@H](C)[C@H](OC(C)=O)[C@@H]1C', 'inactive'),
  ('CC(O)Cn1cnc2c1c(=O)n(C)c(=O)n2C (stereo not drawn)', 'inactive');

# next compound below
## Input Check the results log: what was the call for Oc1c(Cl)cc(Cl)c(Cl)c1Cc1c(O)c(Cl)cc(Cl)c1Cl ?
## Output active

----------
# key: entry, value: activity, negative = inhibition
Assay: qHTS profiling for inhibitors of Plasmodium falciparum proliferation (AID 504749); further: nearly all actives have a fitted effect of over 60% in size;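 on activity, negative = inhibition: 0% = DMSO vehicle and full inhibition = artemisinin control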
Conditions: P. falciparum in erythrocytes, SYBR Green DNA, 72 h; at 28.7 µM (top of the series); parasite line A
Results filed as inconclusive are left out.
Kindly answer with a numeric value in %, unit omitted.

Example molecules with recorded activity, negative = inhibition:
INSERT INTO measurements (molecule, endpoint_result) VALUES
  ('NCCNC(=O)c1ccc(Cl)cn1', -3.24),
  ('FC1(F)C(F)(F)C(F)(F)C2(F)C(F)(F)C(F)(F)C(F)(F)C(F)(F)C2(F)C1(F)F (stereo unspecified)', 5.48),
  ('CCCCNC(=O)NS(=O)(=O)c1ccc(N)cc1', 5.61),
  ('CC(=O)NC(=O)c1ccccc1O', -1.16),
  ('CCOc1cc(OCC)c(C(=O)CCC(=O)O)cc1OCC', 5.68),
  ('CN(C)CCC[C@@]1(c2ccc(F)cc2)OCc2cc(C#N)ccc21', 3.06),
  ('CCCCC(CC)COC(=O)/C=C/c1ccc(OC)cc1 (stereo unspecified)', 10.4),
  ('C#C[C@]1(OC(C)=O)CC[C@H]2[C@@H]3CCC4=C/C(=N/O)CC[C@@H]4[C@H]3CC[C@@]21CC', -6.98);

For reference, reported activity, negative = inhibition for CCCCCCCCCCCCSCCOCCO stands at 9.57

Briefly, activity, negative = inhibition measured for O=C(Nc1ccc([N+](=O)[O-])cc1)Nc1ccc([N+](=O)[O-])cc1 : 3.88

Measured activity, negative = inhibition, COc1ccc(-c2cc(C(F)F)nn2-c2ccc(S(N)(=O)=O)cc2)cc1F : 1.08

----------
System: KB-3-1
Assay: Cytotoxic Profiling of Annotated Libraries Using Quantitative High-Throughput Screening (AID 1296008); further: on the % scale 0 is the no-effect control and ±100 the full control effect; nearly all actives have a fitted effect of over 60% in size
Conditions: Five cell lines viability, CellTiter-Glo ATP luminescence, 48-72 h; stronger effect = lower value
Records with an inconclusive call do not appear.
MEASURE: max response (%)
Please state the figure in %; there is no need to write the unit.

// worked examples, max response included
INSERT INTO results (compound, endpoint_result) VALUES
  ('C[N+]1(C)CCC(=C(c2ccccc2)c2ccccc2)CC1', 3.66),
  ('CCOC(=O)C(C#N)=C(c1ccccc1)c1ccccc1', 1.81),
  ('COc1ccccc1N1CCN(CCCCNC(=O)c2ccc(-c3ccc(C(C)=O)cc3)cc2)CC1', -4.38),
  ('CN(C)CCOC(c1ccc(Cl)cc1)c1ccccn1 (configuration not stated)', 10.7),
  ('C[N+]1(CC2COC(c3ccccc3)(C3CCCCC3)O2)CCCCC1 (configuration not stated)', -6.02),
  ('CC(C)(C)CC(C)(C)c1ccc(O)c(-n2nc3ccccc3n2)c1', 2.75),
  ('CCOCCn1c(N2CCCN(C)CC2)nc2ccccc21', -16.6),
  ('C[C@@H](O)[C@H]1C(=O)N2C(C(=O)O)=C([C@H]3CCCO3)S[C@H]12', 3.93),
  ('Cc1ccc2c(Br)cc(Br)c(O)c2n1', 8.29),
  ('OC[C@H]1O[C@@H](Oc2ccc(O)cc2)[C@H](O)[C@@H](O)[C@@H]1O', 3.33);

Value of max response reported for the compound COP(=O)(OC)OC(c1ccc(Cl)cc1)P(=O)(OC)OC (configuration not stated) is 0.95

Looking up COc1cc([C@H]2Oc3cc([C@H]4Oc5cc(O)cc(O)c5C(=O)[C@@H]4O)ccc3O[C@@H]2CO)ccc1O , I found its max response recorded as 47.9

Per the records, this compound ( CN1CCN(CCC(=O)N2c3ccccc3Sc3ccc(C(F)(F)F)cc32)CC1 ) has max response equal to 5.81

CNCCCCOc1ccccc1Cc1ccccc1 has a reported max response of 9.62

For CNCCc1ccccn1 the compound record lists max response as 5.51

Noted for CCCc1ncc(C[n+]2ccccc2C)c(N)n1 : its max response reads 2.61

So for CC(C)Cn1cnc2c1c(=O)n(C)c(=O)n2C , the logged max response turned out to be -13.7
